Reference source for all entries: patent US4696920A

- Tested on: calcium channel binding site for [^3 H]-Nitrendipine (rat brain membranes)
- measurement_protocol: [^3 H]-Nitrendipine binding to rat brain membranes
- Parameters: species or system rat (male Wistar)
- settings: ratio of [^3 H]-Nitrendipine bound at 1.0 and 0.1 μM compound; Table 1a
Simple rule here: Bound ^3 H at 1.0 μM / Bound ^3 H at 0.1 μM less than 0.8 is 1, otherwise 0.

>>> category_label("CCCCOP(=O)(CC(CCCc1ccccc1)CP(=O)(OCCCC)OCCCC)OCCCC")
1

-- ask Answer whether the compound "CCCCOP(=O)(CC(CP(=O)(OCCCC)OCCCC)c1ccccn1)OCCCC" has Bound ^3 H at 1.0 μM / Bound ^3 H at 0.1 μM strictly less than 0.8
-- reply 0

-- ask Answer whether the compound "O=P(O)(O)CC(CCc1ccccc1)CP(=O)(O)O" has Bound ^3 H at 1.0 μM / Bound ^3 H at 0.1 μM strictly less than 0.8
-- reply 0

-- ask Answer whether the compound "CCOP(=O)(CC(Cc1ccccc1)CP(=O)(OCC)OCC)OCC" has Bound ^3 H at 1.0 μM / Bound ^3 H at 0.1 μM strictly less than 0.8
-- reply 0

-- ask Answer whether the compound "CCOP(=O)(CC(Cc1cccc2ccccc12)CP(=O)(OCC)OCC)OCC" has Bound ^3 H at 1.0 μM / Bound ^3 H at 0.1 μM strictly less than 0.8
-- reply 0

-- ask Answer whether the compound "COP(=O)(CC(Cc1ccccc1)CP(=O)(OC)OC)OC" has Bound ^3 H at 1.0 μM / Bound ^3 H at 0.1 μM strictly less than 0.8
-- reply 0

-- ask Answer whether the compound "CCCCOP(=O)(CC(CP(=O)(OCCCC)OCCCC)C(c1ccccc1)c1ccccc1)OCCCC" has Bound ^3 H at 1.0 μM / Bound ^3 H at 0.1 μM strictly less than 0.8
-- reply 0

-- ask Answer whether the compound "CCCCOP(=O)(CC(Cc1cc(OC)c(OC)c(OC)c1)CP(=O)(OCCCC)OCCCC)OCCCC" has Bound ^3 H at 1.0 μM / Bound ^3 H at 0.1 μM strictly less than 0.8
-- reply 0

-- ask Answer whether the compound "CC(C)OP(=O)(CC(Cc1ccccc1)CP(=O)(OC(C)C)OC(C)C)OC(C)C" has Bound ^3 H at 1.0 μM / Bound ^3 H at 0.1 μM strictly less than 0.8
-- reply 0

-- ask Answer whether the compound "CCCCCOP(=O)(CC(CCCc1ccccc1)CP(=O)(OCCCCC)OCCCCC)OCCCCC" has Bound ^3 H at 1.0 μM / Bound ^3 H at 0.1 μM strictly less than 0.8
-- reply 1

-- ask Answer whether the compound "COP(=O)(CC(CCc1ccccc1)CP(=O)(OC)OC)OC" has Bound ^3 H at 1.0 μM / Bound ^3 H at 0.1 μM strictly less than 0.8
-- reply 0

-- ask Answer whether the compound "CCCCOP(=O)(CC(CCCc1cccnc1)CP(=O)(OCCCC)OCCCC)OCCCC" has Bound ^3 H at 1.0 μM / Bound ^3 H at 0.1 μM strictly less than 0.8
-- reply 1

* * *

- System: [^3 H]-PN-200 110 (dihydropyridine) binding site of calcium channel, rat brain membranes
- measurement_protocol: [^3 H]-PN-200 110 binding to rat brain membranes
- Design: species or system rat (male Wistar)
- settings: compound concentration 1.0 μM; Table 1b
measure: Specifically bound [^3 H]-PN-200 110 % of control value

Answered cases to consult:
>>> measured("CCCCOP(=O)(CC(CCOc1ccc(Br)cc1)CP(=O)(OCCCC)OCCCC)OCCCC")
"15 % of control value"
>>> measured("CCCCOP(=O)(CC(CCOc1ccccc1)CP(=O)(OCCCC)OCCCC)OCCCC")
"3 % of control value"
>>> measured("CCCCOP(=O)(CC(CCOc1ccc(F)cc1)CP(=O)(OCCCC)OCCCC)OCCCC")
"6 % of control value"

-- ask Tell me Specifically bound [^3 H]-PN-200 110 % of control value of "CCCCOP(=O)(CC(Cc1cc2c(cc1Cl)OCO2)CP(=O)(OCCCC)OCCCC)OCCCC" when tested on [^3 H]-PN-200 110 (dihydropyridine) binding site of calcium channel, rat brain membranes.
-- reply 56 % of control value

* * *

- Test system: [^3 H]-PN-200 110 (dihydropyridine) binding site of calcium channel, rat brain membranes
- measurement_protocol: [^3 H]-PN-200 110 binding to rat brain membranes
- Parameters: species or system rat (male Wistar)
- settings: compound concentration 1.0 μM; Table 1b
measure: Specifically bound [^3 H]-PN-200 110 % of control value

Answered cases to consult:
>>> measured("CCCCOP(=O)(CC(CCOc1cc(C)ccc1C)CP(=O)(OCCCC)OCCCC)OCCCC")
"19 % of control value"
>>> measured("CCCCOP(=O)(CC(CCOc1ccc(OC)cc1)CP(=O)(OCCCC)OCCCC)OCCCC")
"0 % of control value"

Query compound follows.
-- ask # return recorded Specifically bound [^3 H]-PN-200 110 % of control value for input "CCCOP(=O)(CC(CCOc1ccccc1)CP(=O)(OCCC)OCCC)OCCC"
-- reply 9 % of control value

* * *

- Tested on: calcium channel binding site for [^3 H]-Nitrendipine (rat brain membranes)
- measurement_protocol: [^3 H]-Nitrendipine binding to rat brain membranes
- Design: species or system rat (male Wistar)
- settings: ratio of [^3 H]-Nitrendipine bound at 1.0 and 0.1 μM compound; Table 1a
measure: Bound ^3 H at 1.0 μM / Bound ^3 H at 0.1 μM

>>> measured("CC(C)COP(=O)(CC(CCCc1ccccc1)CP(=O)(OCC(C)C)OCC(C)C)OCC(C)C [Compound 111]")
0.809

Dear colleague, could you please provide Bound ^3 H at 1.0 μM / Bound ^3 H at 0.1 μM for the compounds listed below?
1. CCCCOP(=O)(CC(Cc1ccc(-c2ccccc2)cc1)CP(=O)(OCCCC)OCCCC)OCCCC [Compound 84]
2. CCCCOP(=O)(CC(CCc1ccccc1)CP(=O)(OCCCC)OCCCC)OCCCC [Compound 74]
3. CCOP(=O)(CC(CP(=O)(OCC)OCC)c1ccccn1)OCC [Compound 40]
4. O=P(O)(O)CC(Cc1ccc(Cl)cc1)CP(=O)(O)O [Compound 5]

-- reply
1: 0.886; 2: 0.380; 3: 0.978; 4: 1.003

Dear colleague, could you please provide Bound ^3 H at 1.0 μM / Bound ^3 H at 0.1 μM for the compounds listed below?
1. CCCCCCOP(=O)(CC(CCCc1ccccc1)CP(=O)(OCCCCCC)OCCCCCC)OCCCCCC [Compound 113]
2. CCOP(=O)(CC(Cc1cc(OC)c(OC)c(OC)c1)CP(=O)(OCC)OCC)OCC [Compound 36]

-- reply
1. 0.621
2. 0.966
